Numbers sourced from patent US7291332B2.

Collected Expt 2 EC50 values appear next to each entry.
Tested on: HepG2 B6 cells (STAT-sPAP reporter)
Assay: OSM-GST mutant driven sPAP production in HepG2 B6 assay
Type: cell-based, human
Please respond with the number in µg/mL and leave the unit unwritten.

Take a look at these entries with their results.
INSERT INTO measurements (molecule, measurement_kind, display_unit, observed) VALUES
  ('(23) N124A: OSM-GST fusion, alanine for Asn 124 (protein, left off: a dimerising Fc or GST; large carriers; small tags and cut ends) AAIGSCSKEYRVLLGQLQKQTDLMQDTSRLLDPYIRIQGLDVPKLREHCRERPGAFPSEETLRGLGRRGFLQTLNATLGCVLHRLADLEQRLPKAQDLERSGLNIEDLEKLQMARPNILGLRNAIYCMAQLLDNSDTAEPTKAGRGASQPPTPTPASDAFQRKLEGCRFLHGYHRFMHSVGRVFSKWGESPNRSRR', 'Expt 2 EC50', 'µg/mL', 0.0362),
  ('(22) N123A: OSM-GST fusion, alanine for Asn 123 (protein, left off: a dimerising Fc or GST; large carriers; small tags and cut ends) AAIGSCSKEYRVLLGQLQKQTDLMQDTSRLLDPYIRIQGLDVPKLREHCRERPGAFPSEETLRGLGRRGFLQTLNATLGCVLHRLADLEQRLPKAQDLERSGLNIEDLEKLQMARPNILGLRANIYCMAQLLDNSDTAEPTKAGRGASQPPTPTPASDAFQRKLEGCRFLHGYHRFMHSVGRVFSKWGESPNRSRR', 'Expt 2 EC50', 'µg/mL', 0.0497),
  ('(24) Y126A: OSM-GST fusion, alanine for Tyr 126 (protein, left off: a dimerising Fc or GST; large carriers; small tags and cut ends) AAIGSCSKEYRVLLGQLQKQTDLMQDTSRLLDPYIRIQGLDVPKLREHCRERPGAFPSEETLRGLGRRGFLQTLNATLGCVLHRLADLEQRLPKAQDLERSGLNIEDLEKLQMARPNILGLRNNIACMAQLLDNSDTAEPTKAGRGASQPPTPTPASDAFQRKLEGCRFLHGYHRFMHSVGRVFSKWGESPNRSRR', 'Expt 2 EC50', 'µg/mL', 0.0103);

// below: Expt 2 EC50 requested for another molecule
Report measured Expt 2 EC50; entry is (1) S7A: OSM-GST fusion, alanine for Ser 7 (protein, left off: a dimerising Fc or GST; large carriers; small tags and cut ends) AAIGSCAKEYRVLLGQLQKQTDLMQDTSRLLDPYIRIQGLDVPKLREHCRERPGAFPSEETLRGLGRRGFLQTLNATLGCVLHRLADLEQRLPKAQDLERSGLNIEDLEKLQMARPNILGLRNNIYCMAQLLDNSDTAEPTKAGRGASQPPTPTPASDAFQRKLEGCRFLHGYHRFMHSVGRVFSKWGESPNRSRR
0.0222
